meta.source: patent US9260425B2

Target: Pim-1 (Homo sapiens (Human), UniProt P11309)
Sequence (P11309 whole entry): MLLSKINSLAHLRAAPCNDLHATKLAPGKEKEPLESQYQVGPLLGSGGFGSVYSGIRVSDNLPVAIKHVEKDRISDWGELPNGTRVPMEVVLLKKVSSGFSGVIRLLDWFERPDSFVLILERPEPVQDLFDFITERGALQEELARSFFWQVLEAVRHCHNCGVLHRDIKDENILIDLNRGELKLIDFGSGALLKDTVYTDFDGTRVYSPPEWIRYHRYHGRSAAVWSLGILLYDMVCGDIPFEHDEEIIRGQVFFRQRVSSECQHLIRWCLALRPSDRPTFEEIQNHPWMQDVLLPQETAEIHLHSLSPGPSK
pKi: −log10 of the molar value.
// reported pKi per item
Parameter Measured: pKi

Molecule	Reported Result
N[C@@H]1CN(c2cccc(-c3n[nH]c4cnc(-c5cccnc5)cc34)n2)CC[C@@H]1F (relative stereo) [Example 452]	10.34
CCn1cc(-c2cc3c(-c4cccc(N5CCNC(C(F)(F)F)CC5)n4)n[nH]c3cn2)cn1 (centres unmarked) [Example 491]	9.74
NCC[C@@H]1CCCN(c2cccc(-c3n[nH]c4cnc(-c5cccnc5)cc34)n2)C1 [Example 242]	10.52
CCn1cc(-c2cc3c(-c4cccc(NC5CCCCNC5)n4)n[nH]c3cn2)cn1 (centres unmarked) [Example 513]	10.26
CCn1cc(-c2cc3c(-c4cccc(N5CCCNCC5)n4)n[nH]c3cn2)cn1 [Example 409]	10.70
NCCCCNc1cccc(-c2n[nH]c3cnc(-c4cccnc4)cc23)n1 [Example 283]	9.59
Cc1ccc(-c2cc3c(-c4cccc(N5CCNCC5)n4)n[nH]c3cn2)cn1 [Example 367]	9.66
CCn1cc(-c2cc3c(-c4ccc(C5CC5)c(N5CCC[C@H](N)C5)n4)n[nH]c3cn2)cn1 [Example 506]	10.68
CCn1cc(-c2cc3c(-c4cccc(N5CCNCC(CO)C5)n4)n[nH]c3cn2)cn1 (centres unmarked) [Example 512]	10.40
N#Cc1cc(-c2n[nH]c3cnc(-c4cccnc4)cc23)cc(N2CCNCC2)c1 [Example 240]	8.28
CCn1cc(-c2cc3c(-c4cccc(N5CCCCC(O)C5)n4)n[nH]c3cn2)cn1 (centres unmarked) [Example 494]	9.91
CCn1cc(-c2cc3c(-c4cc(C)cc(N5CCCNCC5)n4)n[nH]c3cn2)cn1 [Example 457]	10.31
c1cc(-c2n[nH]c3cnc(-c4cncs4)cc23)nc(N2CCNCC2)c1 [Example 359]	10.13
N[C@H]1CCN(c2ccc(-c3n[nH]c4cnc(-c5cccnc5)cc34)cn2)C1 [Example 202]	9.00
N[C@H]1C[C@@H](F)CN(c2cccc(-c3n[nH]c4cnc(-c5cccnc5)cc34)n2)C1 [Example 321]	10.18
CNc1cccc(-c2n[nH]c3cnc(-c4cccnc4)cc23)n1 [Example 437]	9.39
NC1CCN(C(=O)C2CCN(c3n[nH]c4cnc(-c5cccnc5)cc34)C2=O)CC1 (centres unmarked) [Example 325]	6.97

###

Biological target: Pim-1 (Homo sapiens (Human), UniProt P11309)
Parameter Measured: Ki (nM)

Structure As Smiles	Reported Result
Cc1n[nH]c2cnc(-c3cncc(F)c3)cc12	737
N[C@H]1CCCN(c2cccc(-c3n[nH]c4cnc(-n5ccnc5)cc34)n2)C1	0.523
Cn1cc(-c2cc3c(-c4ccc(Br)c(N5CCC(N)CC5)n4)n[nH]c3cn2)cn1	0.03
Cc1n[nH]c2cnc(-c3cnccc3N3CCC[C@@H](N)C3)cc12	1100
NC[C@@H]1CCN(c2ccncc2-c2cc3c(-c4ccccc4F)n[nH]c3cn2)C1	1500
Cn1cc(-c2cc3c(-c4ccc(Br)c(N5CCC[C@H](O)C5)n4)n[nH]c3cn2)cn1	0.333
O[C@@H]1CCN(c2nc(-c3n[nH]c4cnc(-c5cccnc5)cc34)ccc2Br)C1	0.412
CCn1cc(-c2cc3c(-c4cncc(N5CCNCC5)n4)n[nH]c3cn2)cn1	0.064

###

Biological target: Pim-1 (Homo sapiens (Human))

Structure As Smiles	Assay Target	Ki (nM)
OC1CCN(c2cccc(-c3n[nH]c4cnc(-c5cccnc5)cc34)n2)CC1	Pim-1 (Homo sapiens (Human))	0.149
Cn1cc(-c2cc3c(-c4cccc(N5CCC[C@](C)(O)C5)n4)n[nH]c3cn2)cn1	Pim-1 (Homo sapiens (Human))	0.128
CCn1cc(-c2cc3c(-c4ccc(C)c(N5CCNCC5)n4)n[nH]c3cn2)cn1	Pim-1 (Homo sapiens (Human))	0.055
Cn1ccc(-c2n[nH]c3cnc(-c4cccnc4)cc23)n1	Pim-1 (Homo sapiens (Human))	7.16
CCn1cc(-c2cc3c(-c4ccc(Br)c(N5CCNCC5)n4)n[nH]c3cn2)cn1	Pim-1 (Homo sapiens (Human))	0.09
Cc1ccc(F)c(-c2n[nH]c3cnc(-c4cnn(C)c4)cc23)c1	Pim-1 (Homo sapiens (Human))	6.08
N[C@H]1CCCN(c2cccc(-c3n[nH]c4cnc(N5CCNC(=O)C5)cc34)n2)C1	Pim-1 (Homo sapiens (Human))	13.7
Cn1cc(-c2cc3c(-c4cccc(NC5CCNCC5)n4)n[nH]c3cn2)cn1	Pim-1 (Homo sapiens (Human))	0.092
CC(C)Cn1cc(-c2cc3c(-c4cccc(N5CCNCC5)n4)n[nH]c3cn2)cn1	Pim-1 (Homo sapiens (Human))	0.057
C1=C(c2n[nH]c3cnc(-c4cccnc4)cc23)CCO1	Pim-1 (Homo sapiens (Human))	10.6

###

// reported pIC50 per item
System: BaF3 PIM1 cells
Test: In vitro cell proliferation potency assay, BaF3 line transfected with PIM-1 (Cell Titer Glo)
Type: cell-based, murine
Conditions: Mus musculus, incubated overnight, read-out: Prolif. BaF3 PIM-1 (IC50)
pIC50: −log10 of the molar value.
Parameter Measured: pIC50

Structure As Smiles	Reported Result
Cn1cc(-c2cc3c(-c4ccccc4F)n[nH]c3cn2)cn1	5.28
N[C@H]1CCCN(c2cncc(-c3cc4c(-c5ccccc5F)n[nH]c4cn3)n2)C1	7.33
Fc1ccccc1-c1n[nH]c2cnc(-c3cccnc3)cc12	4.73

###

Target: Pim-1 (Homo sapiens (Human))
pKi: −log10 of the molar value.

Compound	pKi
NC1CCN(c2nc(-c3n[nH]c4cnc(-c5cccnc5)cc34)ccc2Cl)CC1 [Example 241]	10.02
N[C@@H]1CCCN(c2cccc(-c3n[nH]c4cnc(-c5cccnc5)cc34)n2)CC1 [Example 249]	10.70
c1cncc(-c2cc3c(-c4cccnc4)n[nH]c3cn2)c1 [Example 176]	8.19
N[C@@H]1CCCN(c2nc(-c3n[nH]c4cnc(-c5cccnc5)cc34)ccc2Br)C1 [Example 290]	10.09
[O-][n+]1cc(C(F)(F)F)ccc1-c1n[nH]c2cnc(-c3cccnc3)cc12 [Example 354]	7.01

###

pKi: −log10 of the molar value.
# pKi measurements, system: UniProtKB P11309
Parameter Measured: pKi

Compound	Parameter Measured	Reported Result
Fc1ccccc1-c1n[nH]c2cnc(-c3cnccc3OC[C@H]3CCNC3)cc12 [Example 211]	pKi	8.89
Cn1cc(-c2cc3c(-c4ccccc4F)n[nH]c3cn2)cn1 [Example 129]	pKi	8.11
c1cc(-c2n[nH]c3cnc(C4CCOC4)cc23)nc(N2CCNCC2)c1 (centres unmarked) [Example 212]	pKi	8.07
CC(O)c1cncc(-c2cc3c(-c4cccc(N5CCNCC5)n4)n[nH]c3cn2)c1 (centres unmarked) [Example 483]	pKi	10.57
CC(C)c1ccc(-c2n[nH]c3cnc(-c4cccnc4)cc23)nc1N1CCC[C@H](N)C1 [Example 328]	pKi	10.34
N[C@@H]1CCCN(Cc2n[nH]c3cnc(-c4cccnc4)cc23)C1 [Example 105]	pKi	5.47
Cn1cc(-c2cc3c(-c4cccc(N5CCC(O)CC5)n4)n[nH]c3cn2)cn1 [Example 294]	pKi	9.77
COc1ccc(F)c(-c2n[nH]c3cnc(-c4cnn(C)c4)cc23)c1 [Example 172]	pKi	8.42
